test.details: relative permittivity at zero frequency (dimensionless); xn = mol fraction of the nth substance listed
test.parameters: 308.15 K; 101 kPa; Liquid; dielectric analyzer; x1 = 0.2
measure.name: relative permittivity at zero frequency
Number, no unit, nothing else.

Enquiry: State the recorded relative permittivity at zero frequency for this entry: CC(C)(N)CO [2-amino-2-methylpropan-1-ol] + O
Return: 47.33

Enquiry: Lookup OCCNCCO [diethanolamine] + O
Return: 51.53

Enquiry: Also, OCCN(CCO)CCO [triethanolamine] + O please.
Return: 48.14

Enquiry: Likewise for CN(CCO)CCO [N-methyldiethanolamine] + O ?
Return: 47.54

Enquiry: Field entry: CC(O)CNCC(C)O (stereo not given) [N-(2-hydroxypropyl)-2-hydroxy-1-propanamine] + O
Return: 40.27
